test system: MCF-7 MX100; assay: BrdU-Assay, IC-50 against cancer cell line MCF-7 MX100; format: cell-based; details: MCF7/MX100; MCF-7 MX100, BrdU-Assay

{"Compound": "CC[C@H](C)C(NC(=O)C1CCCCN1C)C(=O)N(C)[C@H](C[C@@H](OC(C)=O)c1nc(C(=O)N[C@@H](Cc2ccccc2)C[C@H](C)CO)cs1)C(C)C (some centres unmarked)", "IC50, pM": 280}
{"Compound": "CCCN(C(=O)C(NC(=O)C1CCCCN1C)[C@@H](C)CC)[C@H](C[C@@H](OCOC)c1nc(C(=O)N[C@@H](Cc2ccccc2)C[C@H](C)CO)cs1)C(C)C (some centres unmarked)", "IC50, pM": 4010}
{"Compound": "CCCN(C(=O)C(NC(=O)C1CCCCN1C)[C@@H](C)CC)[C@H](C[C@@H](OC(C)=O)c1nc(C(=O)N[C@H](CO)Cc2ccccc2)cs1)C(C)C (some centres unmarked)", "IC50, pM": 200}
{"Compound": "CC[C@H](C)C(NC(=O)C1CCCCN1C)C(=O)N[C@H](C[C@@H](OC(C)=O)c1nc(C(=O)N[C@@H](Cc2ccccc2)C[C@H](C)CO)cs1)C(C)C (some centres unmarked)", "IC50, pM": 1410}
{"Compound": "CCCN(C(=O)C(NC(=O)C1CCCCN1C)[C@@H](C)CC)[C@H](C[C@@H](OC(C)=O)c1nc(C(=O)N[C@@H](Cc2ccccc2)C[C@H](C)CO)cs1)C(C)C (some centres unmarked)", "IC50, pM": 620}
